Provenance of the data: paper PMC10415149

target: T1, PrimPol WT (Homo sapiens, UniProt Q96LW4 1-560)
T1 sequence: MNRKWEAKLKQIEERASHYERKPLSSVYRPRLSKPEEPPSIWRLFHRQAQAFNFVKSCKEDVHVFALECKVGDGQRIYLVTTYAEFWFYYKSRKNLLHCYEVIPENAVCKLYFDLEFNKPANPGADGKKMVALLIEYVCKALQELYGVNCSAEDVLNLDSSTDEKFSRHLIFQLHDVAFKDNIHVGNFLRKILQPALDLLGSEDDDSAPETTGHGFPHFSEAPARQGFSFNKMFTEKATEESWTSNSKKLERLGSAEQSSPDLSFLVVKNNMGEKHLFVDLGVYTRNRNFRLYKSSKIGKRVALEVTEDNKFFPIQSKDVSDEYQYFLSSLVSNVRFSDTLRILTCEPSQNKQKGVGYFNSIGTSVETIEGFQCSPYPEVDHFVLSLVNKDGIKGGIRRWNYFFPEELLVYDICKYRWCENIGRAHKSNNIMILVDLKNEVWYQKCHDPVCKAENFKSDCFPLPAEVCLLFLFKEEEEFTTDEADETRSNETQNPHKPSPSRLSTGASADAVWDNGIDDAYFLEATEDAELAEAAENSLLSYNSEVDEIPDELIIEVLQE
protocol: EMSA; 1 mM Mn2+; EMSA: 40 mM HEPES pH 7.0, 50 mM KCl, 1 mM DTT, 5% glycerol, 0.1 mg/ml BSA, 1 mM MnCl2, 300 nM DNA, 24 C 20 min then ice (RPA assays: 50 nM DNA, 25 nM RPA, 8 C); 5% native PAGE, 0.5x Tris-glycine pH 8.3, 4 C
details: protein: recombinant; tags: N-terminal SUMO-HIS10; label: Cy5 at 5' of template; template 5' overhang 1 nt, 3' overhang 11 nt
measurement.type: pKd
Give bare numbers, as −log10 of the molar value.

Task: // pKd lookup, key: p-p-p-12/Cy5-Acctg24 (mixed, primer 5'-triphosphate; primer nt 1 is ribo-A, rest DNA) DNA 1: AAAAAAAAAACCTGAAAAAAAAAA DNA 2: AGGTTTTTTTTT
Result: 6.31
